molecular target: human kinase Mps-1 (Homo sapiens, UniProt P33981); construct: N-terminally GST-tagged human full length recombinant Mps-1 kinase; assay: Mps-1 kinase assay (HTRF); conditions: lowATP; mean; read-out: Mps1 lowATP mean IC50
Sequence (P33981 whole entry): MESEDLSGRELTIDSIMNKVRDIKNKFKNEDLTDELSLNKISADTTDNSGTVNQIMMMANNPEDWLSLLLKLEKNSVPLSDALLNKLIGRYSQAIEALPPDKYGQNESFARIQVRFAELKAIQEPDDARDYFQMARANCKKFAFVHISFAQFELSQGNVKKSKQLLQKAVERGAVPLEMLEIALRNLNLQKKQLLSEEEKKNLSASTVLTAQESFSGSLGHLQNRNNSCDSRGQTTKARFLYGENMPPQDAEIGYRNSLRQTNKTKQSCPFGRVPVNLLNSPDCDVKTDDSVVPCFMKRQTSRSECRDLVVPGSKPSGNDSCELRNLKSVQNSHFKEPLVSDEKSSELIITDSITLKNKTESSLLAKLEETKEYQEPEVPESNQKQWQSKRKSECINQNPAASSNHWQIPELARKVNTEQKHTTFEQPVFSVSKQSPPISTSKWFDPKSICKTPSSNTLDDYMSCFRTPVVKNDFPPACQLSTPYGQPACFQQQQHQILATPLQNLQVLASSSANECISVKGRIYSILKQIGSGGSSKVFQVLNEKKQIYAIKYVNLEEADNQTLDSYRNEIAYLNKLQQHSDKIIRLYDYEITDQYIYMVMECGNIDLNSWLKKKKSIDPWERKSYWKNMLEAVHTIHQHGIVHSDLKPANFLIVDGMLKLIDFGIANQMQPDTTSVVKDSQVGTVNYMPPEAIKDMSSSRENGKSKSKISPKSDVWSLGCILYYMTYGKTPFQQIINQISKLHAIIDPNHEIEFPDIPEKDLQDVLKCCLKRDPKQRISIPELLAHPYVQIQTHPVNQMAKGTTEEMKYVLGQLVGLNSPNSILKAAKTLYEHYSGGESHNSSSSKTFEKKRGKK
pIC50: −log10 of the molar value.
# binarize pIC50: threshold 6 inclusive, high side label 1, low side label 0

In [3]: df
Out[3]:
                                smiles_input  classification
 0  CC(C)CNc1nc2ccccc2n2c(-c3ccc4c(c3)OCCO4)cnc12         label 0
 1  CC(C)CNc1nc2cc(F)c(F)cc2n2c(-c3ccc(C(=O)NC4CC4)c(Cl)c3)cnc12         label 1
 2  O=C(NC1CC1)c1ccc(-c2cnc3c(NCC4CC4)nc4ccc(F)cc4n23)cc1         label 1
 3  CNC(=O)Nc1ccc(-c2cnc3c(NCCCCO)nc4cc(C)c(C)cc4n23)cc1         label 1
 4  CNC(=O)Nc1ccc(-c2cnc3c(NCc4cnn(C)c4)nc4ccc(F)cc4n23)cc1         label 0
 5  CNC(=O)Nc1ccc(-c2cnc3c(NCCCn4ccnc4)nc4cc(F)c(F)cc4n23)cc1         label 0
 6  N#Cc1ccc2c(c1)nc(NCc1ccco1)c1ncc(-c3ccc(C(=O)NC4CC4)cc3)n12         label 1
 7  CCCCNc1nc2cc(C#N)ccc2n2c(-c3ccc(C(=O)NC4CC4)cc3)cnc12         label 1
 8  COCCNc1nc2cc(C)c(C)cc2n2c(-c3ccc(C(=O)NC4CC4)c(Cl)c3)cnc12         label 1
 9  CC(C)CCNc1nc2cc(C#N)ccc2n2c(-c3ccc(C(=O)NC4CC4)c(Cl)c3)cnc12         label 1
10    CC(C)CNc1nc2ccccc2n2c(-c3ccccc3O)cnc12         label 0
11  Cn1cc(CNc2nc3ccc(F)cc3n3c(-c4ccc(C(=O)NC5CC5)cc4)cnc23)cn1         label 1
12  Cn1cc(CNc2nc3cc(F)c(F)cc3n3c(-c4ccc(C(=O)NC5CC5)c(Cl)c4)cnc23)cn1         label 0
13  O=C(NC1CC1)c1ccc(-c2cnc3c(NCCc4ccncc4)nc4ccccc4n23)cc1         label 1
